- system-tested: bradykinin receptor 1 (B1R) of the rat (Rattus norvegicus, UniProt P97583)
- Construct: expressed in transfected cells; host or cells: CHO K1 cells
- Sequence (P97583 whole entry): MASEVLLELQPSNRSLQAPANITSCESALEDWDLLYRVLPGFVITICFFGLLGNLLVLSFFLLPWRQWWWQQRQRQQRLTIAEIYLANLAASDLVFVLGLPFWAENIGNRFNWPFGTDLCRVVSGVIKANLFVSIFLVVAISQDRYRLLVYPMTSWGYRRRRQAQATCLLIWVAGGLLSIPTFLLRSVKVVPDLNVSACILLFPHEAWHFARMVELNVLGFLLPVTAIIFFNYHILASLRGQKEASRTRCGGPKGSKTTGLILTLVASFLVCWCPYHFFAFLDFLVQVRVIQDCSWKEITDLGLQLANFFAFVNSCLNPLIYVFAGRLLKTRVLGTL
- protocol-details: Functional study on the bradykinin receptor 1 (B1R), rat: FLIPR Ca2+ influx assay
- Assay type: cell-based
- conditions-used: test substance 10 μM; CHO K1 cells transfected with rat B1R; Des-Arg9-bradykinin at EC80; Ca2+ influx (Fluo-4, FLIPR); read-out: B1R antagonism, rat [10 μM] % inhibition
Classify by measured inhibition at 10 µM: Satisfied if it is equal to or exceeds 30%, Not satisfied if it is smaller.

| molecule | system-tested | class-name |
| --- | --- | --- |
| O=C(CC1C(=O)NCCN1S(=O)(=O)c1ccc(Cl)cc1Cl)NC1CCC(C(c2ccccc2)N2CCCC2)CC1 (stereo not drawn) | bradykinin receptor 1 (B1R) of the rat (Rattus norvegicus, UniProt P97583) | Not satisfied |
| CN(C)C(CCc1ccccc1)C1CCC(CCNC(=O)C2Cc3ccccc3N2S(=O)(=O)c2ccc(Cl)c(Cl)c2)CC1 (stereo not drawn) | bradykinin receptor 1 (B1R) of the rat (Rattus norvegicus, UniProt P97583) | Not satisfied |
| O=C(CC1C(=O)Nc2ccccc2N1S(=O)(=O)c1ccc(Cl)c(Cl)c1)NC1CCC(C(c2ccccc2)N2CCCC2)CC1 (stereo not drawn) | bradykinin receptor 1 (B1R) of the rat (Rattus norvegicus, UniProt P97583) | Satisfied |
| CN(C)C(c1cccc(F)c1)C1CCC(CCNC(=O)c2c(N(C)S(=O)(=O)c3ccc(Cl)c(Cl)c3)sc3c2CCCC3)CC1 (stereo not drawn) | bradykinin receptor 1 (B1R) of the rat (Rattus norvegicus, UniProt P97583) | Not satisfied |
| CN(CCCCC(=O)NC1CCC(C(c2ccccc2)N2CCCCC2)CC1)S(=O)(=O)c1c(Cl)cc(Cl)cc1Cl (stereo not drawn) | bradykinin receptor 1 (B1R) of the rat (Rattus norvegicus, UniProt P97583) | Satisfied |
| O=C(CC1C(=O)Nc2ccccc2N1S(=O)(=O)c1ccc(Cl)c(Cl)c1)NCC1CCC(C(c2ccccc2)N2CCOCC2)CC1 (stereo not drawn) | bradykinin receptor 1 (B1R) of the rat (Rattus norvegicus, UniProt P97583) | Not satisfied |
| O=C(CC1CCCN1S(=O)(=O)c1ccc(Cl)c(Cl)c1)N1CCC(C(c2ccccc2)N2CCOCC2)CC1 (stereo not drawn) | bradykinin receptor 1 (B1R) of the rat (Rattus norvegicus, UniProt P97583) | Not satisfied |
| COc1cc(C)c(S(=O)(=O)N(C)CCCNC(=O)NC2CCC(C(c3ccccc3)N3CCCC3)CC2)c(C)c1C (stereo not drawn) | bradykinin receptor 1 (B1R) of the rat (Rattus norvegicus, UniProt P97583) | Satisfied |
| CN(C)C(c1ccc(F)cc1)C1CCC(CCNC(=O)CC2c3ccccc3CCN2S(=O)(=O)c2ccc(Cl)c(Cl)c2)CC1 (stereo not drawn) | bradykinin receptor 1 (B1R) of the rat (Rattus norvegicus, UniProt P97583) | Satisfied |
| CN(C)C(c1cccc(F)c1)C1CCC(NC(=O)C2Cc3ccccc3N2S(=O)(=O)c2ccc(Cl)c(Cl)c2)CC1 (stereo not drawn) | bradykinin receptor 1 (B1R) of the rat (Rattus norvegicus, UniProt P97583) | Not satisfied |
| O=C(CC1CCCCN1S(=O)(=O)c1ccc(Cl)c(Cl)c1)N1CCC(C(Cc2ccccc2)N2CCOCC2)CC1 (stereo not drawn) | bradykinin receptor 1 (B1R) of the rat (Rattus norvegicus, UniProt P97583) | Not satisfied |
| O=C(CC1CCCCN1S(=O)(=O)c1ccc(Cl)c(Cl)c1)N1CCC(C(c2ccccc2)N2CCOCC2)CC1 (stereo not drawn) | bradykinin receptor 1 (B1R) of the rat (Rattus norvegicus, UniProt P97583) | Not satisfied |
| O=C(CC1CCCCN1S(=O)(=O)c1ccc(Cl)c(Cl)c1)NC1CCC(C(c2ccccc2)N2CCCC2)CC1 (stereo not drawn) | bradykinin receptor 1 (B1R) of the rat (Rattus norvegicus, UniProt P97583) | Not satisfied |
| CN(C)C(c1ccc(Cl)cc1)C1CCC(CNC(=O)c2ccccc2N(C)S(=O)(=O)c2ccc(Cl)c(Cl)c2)CC1 (stereo not drawn) | bradykinin receptor 1 (B1R) of the rat (Rattus norvegicus, UniProt P97583) | Not satisfied |
| CN(C)C(c1cccc(F)c1)C1CCC(CCNC(=O)c2ccccc2N(C)S(=O)(=O)c2ccc(Cl)c(Cl)c2)CC1 (stereo not drawn) | bradykinin receptor 1 (B1R) of the rat (Rattus norvegicus, UniProt P97583) | Not satisfied |
| CN(C)C(c1cccs1)C1CCC(CNC(=O)c2c(N(C)S(=O)(=O)c3ccc(Cl)c(Cl)c3)sc3c2CCCC3)CC1 (stereo not drawn) | bradykinin receptor 1 (B1R) of the rat (Rattus norvegicus, UniProt P97583) | Not satisfied |
| CN(C)C(c1ccc(F)cc1)C1CCC(CCNC(=O)c2ccccc2N(C)S(=O)(=O)c2ccc(Cl)c(Cl)c2)CC1 (stereo not drawn) | bradykinin receptor 1 (B1R) of the rat (Rattus norvegicus, UniProt P97583) | Not satisfied |
| Cc1cc(S(=O)(=O)N2CCCCC2CCC(=O)N2CCC(C(c3ccc(F)cc3)N3CCN(C)CC3)CC2)c(C)cc1Cl (stereo not drawn) | bradykinin receptor 1 (B1R) of the rat (Rattus norvegicus, UniProt P97583) | Satisfied |
| O=C(CC1C(=O)Nc2ccccc2N1S(=O)(=O)c1ccc(Cl)c(Cl)c1)NC1CCC(C(CCc2ccccc2)N2CCCCC2)CC1 (stereo not drawn) | bradykinin receptor 1 (B1R) of the rat (Rattus norvegicus, UniProt P97583) | Satisfied |
| CN(C)C(c1ccc(F)cc1)C1CCC(NC(=O)CC2c3ccccc3CCN2S(=O)(=O)c2ccc(Cl)c(Cl)c2)CC1 (stereo not drawn) | bradykinin receptor 1 (B1R) of the rat (Rattus norvegicus, UniProt P97583) | Satisfied |
| O=C(CC1CCCCN1S(=O)(=O)c1ccc(Cl)c(Cl)c1)NCC1CCC(C(c2ccccc2)N2CCOCC2)CC1 (stereo not drawn) | bradykinin receptor 1 (B1R) of the rat (Rattus norvegicus, UniProt P97583) | Not satisfied |
| COc1ccc(S(=O)(=O)N2CCc3ccccc3C2CC(=O)NCC2CCC(C(c3ccc(F)cc3)N(C)C)CC2)cc1 (stereo not drawn) | bradykinin receptor 1 (B1R) of the rat (Rattus norvegicus, UniProt P97583) | Satisfied |
| CN(C)C(c1ccc(F)cc1)C1CCC(CCNC(=O)c2c(N(C)S(=O)(=O)c3ccc(Cl)c(Cl)c3)sc3c2CCCC3)CC1 (stereo not drawn) | bradykinin receptor 1 (B1R) of the rat (Rattus norvegicus, UniProt P97583) | Not satisfied |
| CN(C)C(c1cccc(F)c1)C1CCC(NC(=O)c2ccccc2N(C)S(=O)(=O)c2ccc(Cl)c(Cl)c2)CC1 (stereo not drawn) | bradykinin receptor 1 (B1R) of the rat (Rattus norvegicus, UniProt P97583) | Satisfied |
| CN1CCN(C(Cc2ccccc2)C2CCN(C(=O)CC3CCCCN3S(=O)(=O)c3cccc(C(F)(F)F)c3)CC2)CC1 (stereo not drawn) | bradykinin receptor 1 (B1R) of the rat (Rattus norvegicus, UniProt P97583) | Satisfied |
| Cc1cc(S(=O)(=O)N2CCCCC2CCC(=O)N2CCC(C(c3cccc(F)c3)N3CCN(C)CC3)CC2)c(C)cc1Cl (stereo not drawn) | bradykinin receptor 1 (B1R) of the rat (Rattus norvegicus, UniProt P97583) | Satisfied |
| Cc1cc(S(=O)(=O)N2CCCCC2CCC(=O)N2CCC(C(Cc3ccccc3)N3CCN(C)CC3)CC2)c(C)cc1Cl (stereo not drawn) | bradykinin receptor 1 (B1R) of the rat (Rattus norvegicus, UniProt P97583) | Satisfied |

---

- system-tested: human μ-opiate receptor (Homo sapiens)
- Construct: purchased PerkinElmer Life Sciences, Zaventem, Belgium RB-HOM; host or cells: CHO-K1 cells (membrane preparation)
- Sequence (P35372 whole entry): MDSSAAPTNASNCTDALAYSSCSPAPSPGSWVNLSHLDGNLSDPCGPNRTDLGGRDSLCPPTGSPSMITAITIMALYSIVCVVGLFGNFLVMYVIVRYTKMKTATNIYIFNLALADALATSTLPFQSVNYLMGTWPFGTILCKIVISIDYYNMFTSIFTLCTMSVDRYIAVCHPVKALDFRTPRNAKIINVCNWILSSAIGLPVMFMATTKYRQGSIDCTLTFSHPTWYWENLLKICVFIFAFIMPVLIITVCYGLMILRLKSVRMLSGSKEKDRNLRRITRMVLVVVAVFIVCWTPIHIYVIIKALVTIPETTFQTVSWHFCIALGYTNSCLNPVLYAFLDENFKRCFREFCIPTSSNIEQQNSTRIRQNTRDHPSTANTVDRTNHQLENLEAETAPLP
- protocol-details: Affinity for the human μ-opiate receptor ([3H]-naloxone displacement, SPA)
- conditions-used: test substance 1 μmol/l; inhibition of specific [3H]-naloxone binding; CHO-K1 receptor membrane preparation; read-out: μ-Opioid receptor [1 μM] % inhibition
- Method: Studies of the Effectiveness of the Compounds According to the Invention Method for determining the affinity for the human μ-opiate receptor The receptor affinity for the human μ-opiate receptor is determined in a homogeneous batch on microtitre plates. […] When the ninety-minute incubation time has ended, the microtitre plates are centrifuged off for 20 minutes at 1000 g and the radioactivity is measured in a β-counter (Microbeta-Trilux, PerkinElmer Wallac, Freiburg, Germany). […]
inhibition at 1 µM values by entry

| compound | inhibition at 1 µM / % |
| --- | --- |
| O=C1NCCN(S(=O)(=O)c2ccc(Cl)cc2Cl)C1CC(=O)N1CCCCC1C(Cc1ccccc1)N1CCOCC1 (stereo not shown) [Example 63] | 47 |
| CN1CCN(C(c2ccccc2)C2CCN(C(=O)CC3CCCCN3S(=O)(=O)c3cccc(C(F)(F)F)c3)CC2)CC1 (stereo not shown) [Example 108] | 6 |
| CN1CCN(C(c2cccc(F)c2)C2CCN(C(=O)CC(NS(=O)(=O)c3ccc4ccccc4c3)c3ccccc3)CC2)CC1 (stereo not shown) [Example 110] | 3 |
| O=C(CC1CCCCN1S(=O)(=O)c1ccc(Cl)c(Cl)c1)NCC1CCC(C(c2ccccc2)N2CCCC2)CC1 (stereo not shown) [Example 85] | 95 |
| O=C(CC1CCCN1S(=O)(=O)c1ccc(Cl)c(Cl)c1)NC1CCC(C(CCc2ccccc2)N2CCCCC2)CC1 (stereo not shown) [Example 77] | 35 |
| O=C(CC1C(=O)NCCN1S(=O)(=O)c1ccc(Cl)cc1Cl)NCC1CCC(C(CCc2ccccc2)N2CCCC2)CC1 (stereo not shown) [Example 57] | 25 |
| O=C(CC1CCCCN1S(=O)(=O)c1ccc(Cl)c(Cl)c1)NCC1CCC(C(CCc2ccccc2)N2CCCC2)CC1 (stereo not shown) [Example 84] | 90 |
